Origin of measurements: patent US20120094909A1

system name: T1, human PCSK9 (proprotein convertase subtilisin kexin type 9) (human, UniProt Q8NBP7 31-692)
T1 construct: Directly immobilized (SPR ProteOn), biotinylated (BLI), or in solution, depending on the assay; also called hPCSK9
test summary: FRET, competitor EGFA peptide
metric: EC50 (nM)

binder	result units	result value
2013E01 (designed binder, Anti-PCSK9 Adnectin, His6-tagged, unmodified (not PEGylated); also called ATI001081) MGVSDVPRDLEVVAATPTSLLISWVPPSDDYGYYRITYGETGGNSPVQEFTVPIGKGTATISGLKPGVDYTITVYAVEFPWPHAGYYHRPISINYRTEIDKPSQHHHHHH	nM	1.6
2381H09 (designed binder, Anti-PCSK9 Adnectin, His6-tagged) MGVSDVPRDLEVVAATPTSLLISWDAPAGGGYGYYRITYGETGGNSPVQEFTVPVSKGTATISGLKPGVDYTITVYAVEFDFVGAGYYHRPISINYRTEIDKPSQHHHHHH	nM	3.4
2382F05 (designed binder, Anti-PCSK9 Adnectin, His6-tagged) MGVSDVPRDLEVVAATPTSLLISWDAPAEAGKHYGYYRITYGETGGNSPVQEFTVPVSKGTATISGLKPGVDYTITVYAVEFDFPGAGYYHRPISINYRTEIDKPSQHHHHHH	nM	2.4
1813E02 (designed binder, Anti-PCSK9 Adnectin, His6-tagged) MGVSDVPRDLEVVAATPTSLLISWSPPANGYGYYRITYGETGGNSPVQEFTVPVGRGTATISGLKPGVDYTITVYAVEYTYKGSGYYHRPISINYRTEIDKPSQHHHHHH	nM	2.7
2382C09 (designed binder, Anti-PCSK9 Adnectin, His6-tagged) MGVSDVPRDLEVVAATPTSLLISWDAPAEGYGYYRITYGETGGNSPVQEFTVPVSKGTATISGLKPGVDYTITVYAVEFDFPGSGYYHRPISINYRTEIDKPSQHHHHHH	nM	3.5
2382E05 (designed binder, Anti-PCSK9 Adnectin, His6-tagged) MGVSDVPRDLEVVAATPTSLLISWDAPAEGGYGYYRITYGETGGNSPVQEFTVPVSKGTATISGLKPGVDYTITVYAVEFDFPGAGYYHRPISINYRTEIDKPSQHHHHHH	nM	2.8
